# measurement.description: qHTS for induction of synthetic lethality in tumor cells producing 2HG: qHTS for the HT-1080-NT fibrosarcoma cell line;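 further: NT is the 2HG producing partner of a matched IDH1 knockdown line; nearly all actives have a fitted effect of over 55% in size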
# condition.details: HT-1080-NT fibrosarcoma viability, CellTiter-Glo ATP luminescence, 48 h; series mostly up to 46.1 µM
Hit rate of the full screen: of about 360,000 compounds, about 6,000 (1.7%) were called active. Roughly 8% stayed inconclusive and do not appear here. The call rests on the fitted dose curve; in most records, active means well fitted cell-killing curve with a large enough effect; inconclusive means small, poorly fitted or top-dose-only effect, or effect the other way; inactive means flat fitted curve, though single readings scatter. The list comes from a sample in which actives are over-represented; it also holds close analogues and randomly drawn compounds.
// one of active, inactive, no free text

The examples below pair each entry with its known result.
molecule: CCNC(=S)Nc1ccc2c(c1)c(=O)n(C)n2Cc1ccc(Cl)cc1
discrete.label: inactive

molecule: Cc1ccc(C(=O)OCC(=O)NC2CCCCCCC2)cc1C
discrete.label: inactive

molecule: C/C(=N\Nc1ccc(Cl)nn1)c1ccccc1O
discrete.label: active

molecule: COc1cc(/C=N/NC(=O)c2cc(-c3ccccc3C)nc3ccccc23)cc(OC)c1O
discrete.label: inactive

molecule: COc1cccc(/C=N/NC(=O)c2[nH]nc3c2CCc2ccccc2-3)c1O
discrete.label: active

[in] Give the logged outcome of this assay for the following molecule: COc1nc(N=C(N)N)nc2c(C)cccc12
[out] inactive

[in] Kindly provide the recorded test outcome for the following molecule: CCNC(=O)C1(C)CCCN(C(=O)c2ccc3ccccc3n2)C1 (stereo unspecified)
[out] inactive

[in] For CCCCCCCN=C(C)c1ccccc1O , which call appears in the assay record?
[out] inactive
